Recorded MCV for the following compounds
organism: Rattus norvegicus; assay: Open TG-GATES - Regimen: Daily Repeat; assay type: toxicity, organism-based, Sprague-Dawley; parameters: regimen Daily Repeat, gender Male, age 6 weeks; details: in vivo, po, 300 mg/kg, […], tissue Blood, route gavage, dose level Middle, time 14 day
Report the value in fL with no unit label.

The cases that follow already have their MCV on record.
>>> observed_measurement("COC(=O)C1=C(C)NC(C)=C(C(=O)OC)C1c1ccccc1[N+](=O)[O-] [NIFEDIPINE]")
62.1
>>> observed_measurement("CNC(=C[N+](=O)[O-])NCCSCc1ccc(CN(C)C)o1 [RANITIDINE]")
59.2
>>> observed_measurement("O=C(OC[C@H]1O[C@@H](OC(=O)c2cc(O)c(O)c(OC(=O)c3cc(O)c(O)c(O)c3)c2)[C@H](OC(=O)c2cc(O)c(O)c(OC(=O)c3cc(O)c(O)c(O)c3)c2)[C@@H](OC(=O)c2cc(O)c(O)c(OC(=O)c3cc(O)c(O)c(O)c3)c2)[C@@H]1OC(=O)c1cc(O)c(O)c(OC(=O)c2cc(O)c(O)c(O)c2)c1)c1cc(O)c(O)c(OC(=O)c2cc(O)c(O)c(O)c2)c1 [TANNIC ACID]")
62.1

// query Could you share which MCV value was measured for CCOc1ccc(NC(C)=O)cc1 [PHENACETIN] ?
// result 59.3

// query One more compound: CN/C(=N/CCSCc1nc[nH]c1C)NC#N [CIMETIDINE]
// result 60.6

// query One more compound: Cc1nnc2n1-c1ccc(Cl)cc1C(c1ccccc1Cl)=NC2 [TRIAZOLAM]
// result 60.8

====

species on record: Rattus norvegicus; test: Open TG-GATES - Regimen: Daily Repeat; assay type: toxicity, organism-based, Sprague-Dawley; parameters: regimen Daily Repeat, gender Male, age 6 weeks; settings: in vivo, po, 0 mg/kg, […], tissue Plasma, route gavage, dose level Control, time 14 day
Recorded LDH for the following molecules
Report the value in IU/L with no unit label.

The cases that follow already have their LDH on record.
>>> observed_measurement("CN(C)CCC(c1ccc(Cl)cc1)c1ccccn1 (stereo not given)")
77
>>> observed_measurement("Nc1c2c(nc3ccccc13)CCCC2")
184.8
>>> observed_measurement("CCOc1ccc(NC(C)=O)cc1")
158.6
>>> observed_measurement("NC1=NC(=O)C(c2ccccc2)O1 (stereo not given)")
66.8

Alright, here's another molecule for you.
// query Could you share which LDH value was measured for `COC(=O)C1=C(C)NC(C)=C(C(=O)OC)C1c1ccccc1[N+](=O)[O-]` ?
// result 57.8

====

species: Rattus norvegicus; test: Open TG-GATES - Regimen: Single; type: toxicity, organism-based, Sprague-Dawley; set-up: regimen Single, gender Male, age 6 weeks; settings: in vivo, po, 300 mg/kg, 6 h, tissue Blood, route gavage, dose level Middle
Recorded Hb for the following molecules
Units required after the number.

>>> observed_measurement("COC(=O)C1=C(C)NC(C)=C(C(=O)OC)C1c1ccccc1[N+](=O)[O-]")
"13.1 g/dL"
>>> observed_measurement("Cc1nnc2n1-c1ccc(Cl)cc1C(c1ccccc1Cl)=NC2")
"13.8 g/dL"
>>> observed_measurement("CNC(=C[N+](=O)[O-])NCCSCc1ccc(CN(C)C)o1")
"13.1 g/dL"
>>> observed_measurement("CN/C(=N/CCSCc1nc[nH]c1C)NC#N")
"13 g/dL"

Alright, here's another molecule for you.
// query Could you share which Hb value was measured for `O=C(OC[C@H]1O[C@@H](OC(=O)c2cc(O)c(O)c(OC(=O)c3cc(O)c(O)c(O)c3)c2)[C@H](OC(=O)c2cc(O)c(O)c(OC(=O)c3cc(O)c(O)c(O)c3)c2)[C@@H](OC(=O)c2cc(O)c(O)c(OC(=O)c3cc(O)c(O)c(O)c3)c2)[C@@H]1OC(=O)c1cc(O)c(O)c(OC(=O)c2cc(O)c(O)c(O)c2)c1)c1cc(O)c(O)c(OC(=O)c2cc(O)c(O)c(O)c2)c1` ?
// result 13 g/dL
